quantity name: melting point

Any idea what its melting point is? The compound is CCCc1c(OCCCOc2cc(O)c(-c3ccc(F)cc3)cc2CC)cccc1Oc1cc(F)ccc1C(=O)O [Example 7]
62 to 64 °C

Any idea what its melting point is? The compound is CCCc1c(Cc2ccccc2C(=O)O)cccc1OCCCOc1cc(O)c(-c2ccc(F)cc2)cc1CC [Example 14]
150 to 151 °C

Bench note: what melting point did CCCc1c(OCCCOc2cc(O)c(-c3ccc(F)cc3)cc2CC)cccc1Sc1ccccc1C(=O)O [Example 15] show?
153 to 155 °C

Endpoint output: melting point of CCCc1c(OCCCCCOc2cc(O)c(-c3ccc(F)cc3)cc2CC)cccc1Oc1ccccc1C(=O)O [Example 8] . Value?
65 °C (dec.)

Reported melting point for CCCc1c(OCCCOc2cc(O)c(-c3ccc(F)cc3)cc2CC)cccc1[S+]([O-])c1ccccc1C(=O)O (stereo not drawn) [Example 16] : what is it?
> 100 °C (dec.)

Which measured melting point value corresponds to CCCc1c(OCCCOc2cc(O)c(-c3ccc(F)cc3)cc2CC)cccc1S(=O)(=O)c1ccccc1C(=O)O (hydrate or solvate) [Example 17] ?
80 to 90 °C

Quick check: melting point of CCCCc1c(OCCCOc2cc(O)c(-c3ccc(F)cc3)cc2CC)cccc1Oc1ccccc1C(=O)O (hydrate or solvate) [Example 11] ?
62 to 64 °C

Entry under review: CCc1cc(-c2ccc(F)cc2)c(O)cc1OCCCOc1cccc(Oc2ccccc2C(=O)O)c1CC(C)C [Example 10] . Reported melting point?
48 to 49 °C

What value of measured melting point is listed for CCCc1c(OCCCCOc2cc(O)c(-c3ccc(F)cc3)cc2CC)cccc1Oc1ccccc1C(=O)O (hydrate or solvate) [Example 9, sesquihydrate] ?
65 to 68 °C

====

Target: MRP (Homo sapiens, UniProt P33527)
Sequence (P33527 whole entry): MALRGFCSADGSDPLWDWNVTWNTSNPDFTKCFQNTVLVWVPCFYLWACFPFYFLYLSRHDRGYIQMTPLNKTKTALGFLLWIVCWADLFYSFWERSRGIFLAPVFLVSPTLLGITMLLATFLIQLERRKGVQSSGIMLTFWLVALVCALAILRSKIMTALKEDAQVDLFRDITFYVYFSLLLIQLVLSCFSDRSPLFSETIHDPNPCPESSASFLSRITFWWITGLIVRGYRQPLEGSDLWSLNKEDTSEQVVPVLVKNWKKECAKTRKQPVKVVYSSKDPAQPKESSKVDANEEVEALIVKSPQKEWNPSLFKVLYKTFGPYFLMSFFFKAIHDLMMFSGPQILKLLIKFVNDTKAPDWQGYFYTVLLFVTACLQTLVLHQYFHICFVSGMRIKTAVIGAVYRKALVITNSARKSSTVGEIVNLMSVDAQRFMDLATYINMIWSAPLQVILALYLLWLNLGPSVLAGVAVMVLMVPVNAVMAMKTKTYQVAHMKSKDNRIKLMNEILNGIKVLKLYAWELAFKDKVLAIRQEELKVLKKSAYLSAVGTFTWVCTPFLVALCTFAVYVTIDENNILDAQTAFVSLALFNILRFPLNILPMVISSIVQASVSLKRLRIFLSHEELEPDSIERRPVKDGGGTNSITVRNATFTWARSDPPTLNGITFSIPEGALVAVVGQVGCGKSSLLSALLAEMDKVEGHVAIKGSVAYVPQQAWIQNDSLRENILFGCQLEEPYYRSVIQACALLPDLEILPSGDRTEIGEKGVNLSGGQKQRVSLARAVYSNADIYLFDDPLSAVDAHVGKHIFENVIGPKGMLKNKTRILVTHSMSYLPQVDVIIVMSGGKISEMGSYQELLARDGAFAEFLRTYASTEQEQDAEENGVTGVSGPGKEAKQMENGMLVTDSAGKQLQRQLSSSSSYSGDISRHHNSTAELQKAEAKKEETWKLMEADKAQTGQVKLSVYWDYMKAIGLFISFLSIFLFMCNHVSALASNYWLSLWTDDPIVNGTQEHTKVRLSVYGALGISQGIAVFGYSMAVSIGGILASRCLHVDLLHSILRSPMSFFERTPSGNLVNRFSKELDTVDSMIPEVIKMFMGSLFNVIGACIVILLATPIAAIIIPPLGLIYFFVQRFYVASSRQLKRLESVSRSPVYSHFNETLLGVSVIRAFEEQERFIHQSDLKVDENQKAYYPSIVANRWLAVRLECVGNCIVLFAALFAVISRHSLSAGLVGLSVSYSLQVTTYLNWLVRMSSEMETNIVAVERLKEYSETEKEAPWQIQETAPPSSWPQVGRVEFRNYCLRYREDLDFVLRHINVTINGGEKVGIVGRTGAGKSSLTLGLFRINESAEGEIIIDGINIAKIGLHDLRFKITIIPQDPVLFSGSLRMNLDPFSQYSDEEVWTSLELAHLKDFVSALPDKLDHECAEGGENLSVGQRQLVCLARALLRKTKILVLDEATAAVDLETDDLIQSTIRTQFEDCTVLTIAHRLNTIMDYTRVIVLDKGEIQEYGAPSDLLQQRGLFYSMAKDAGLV
Experiment: ATP-dependent transport into membrane vesicles of MRP-overexpressing HL60/ADR cells
Details: inhibition of ATP-dependent transport of LTC4, vesicles of MRP-overexpressing cells, 37° C., 2 minutes; read-out: inhibition constant (Ki)
Procedure: HL60/ADR cells (human leukemia cells grown in adriamycin and overexpressing MRP), revertant HL60 cells, and parental HL60 cells, respectively, were harvested by centrifugation after cultivation in cell culture and plasma membrane vesicles were prepared according to standard methods. Briefly, the cells were lysed by incubation in hypotonic buffer (0.5 mM sodium phosphate (pH 7.0), 0.1 mM EDTA supplemented with protease inhibitors) for 1.5 hours, followed by homogenization in a homogenizer. […]
quantity name: pKi
Note on units: pKi is unitless, being -log10 of a concentration expressed in mol/L.

State the recorded pKi for this entry: `CCCCC/C=C\C\C=C/C=C/C=C/[C@@H](Sc1ccc(C(=O)O)cc1)[C@@H](O)CCCC(=O)O`
6.15
